- study.system: Mas-related G-protein coupled receptor member X1 (Homo sapiens)
- test.name: positive allosteric modulators of MrgX1, primary screen, HEK293 cells, Fluo-4 calcium flux (AID 588675);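 also: compound read alongside a low EC10 to EC30 dose of BAM8-22 agonist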
- measurement.context: MrgX1-HEK293, Fluo-4 calcium flux, FDSS, at 10 µM
Among all 310,000 compounds or so, about 1,900 (0.61%) were called active.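 The calls were made as follows: active = plate-corrected calcium response at least 3 library SD above typical, normal starting fluorescence, not activating the receptor alone; inactive = the rest.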 The list comes from a sample in which actives are over-represented; it also holds close analogues and randomly drawn compounds.
Tick one outcome: active, inactive

O=C(Nc1nc2c(F)cc(F)cc2s1)C1COc2ccccc2O1 (stereo unspecified) : active
Cc1nn(C(=O)c2ccoc2C)c(N)c1-c1ccccc1 : active
CCOc1cc(C(=O)Nc2ccc(S(=O)(=O)Nc3cnc4ccccc4n3)cc2)cc(OCC)c1OCC : inactive
COc1ccc(OC)c2sc(NC(=O)C3COc4ccccc4O3)nc12 (stereo unspecified) : inactive
CS(=O)(=O)Nc1ccc(C(=O)N2CCCC2)cc1 : inactive

**Q:** What outcome does the record of this test show for COc1ccc(CN(C)C(=O)Cc2ccsc2)c(OC)c1OC ?
**A:** inactive
